- assay-remarks: Caco2 (A-B/B-A) permeability
- Type: in vitro ADME
- condition-notes: human, Caco-2, pH 7.4, apical-to-basolateral, 5 μM, HBSS pH 7.4, 120 min, 37° C.; read-out: Caco2 A-B apparent permeability (Papp)
measure-name: Papp A→B at 120 min, 5 μM (×10⁻⁶ cm/s)
One number for each entry, in ×10⁻⁶ cm/s.

>>> measured_value("CCc1cc2cnc([C@H](C)N3CC(Oc4ccc(C(=O)NC)nc4F)C3)cc2[nH]c1=O (single isomer, unassigned; enantiomer 1)")
3.46
>>> measured_value("CCc1cc2ncc(CN3CC4CCN(c5ccc(C(=O)NC)nc5)C4C3)cc2[nH]c1=O (stereo not drawn)")
4.57

Prompt line: Using the record for `CCc1cc2ncc(CN3CC[C@@H](Oc4ccc(C(=O)NC)nc4)C3)cc2[nH]c1=O` , report its Papp A→B at 120 min, 5 μM.
Response line: 4.13
